Values from ChEMBL document CHEMBL1157539

Test system: HepG2
EXPERIMENTAL_DETAILS: GSK_TCMDC: Percent inhibition of human HepG2 cell line. Test compounds present at 10uM.
Format: functional

MOLECULE	Inhibition / %
CCCNCc1ccc(-c2ccc(CN(CC3CCCO3)C(=O)C3CC(=O)c4ccccc43)cc2)nc1.O=C(O)C(F)(F)F (stereo not drawn)	0
O=C(NCCNc1ccnc(Nc2ccc(F)cc2)n1)Nc1ccc2c(c1)OCO2	15
COc1ccc2nccc(N3CCC(SCCNS(=O)(=O)c4ccc5c(c4)NC(=O)CS5)C3)c2n1.Cl (stereo not drawn)	20
Cc1noc(C)c1-c1cccc(CNCc2ccc(-c3cccc(-c4nc5cc(C(F)(F)F)ccc5[nH]4)c3)cc2)c1.O=C(O)C(F)(F)F	37
O=C(Nc1ccc(F)c(C(F)(F)F)c1)NC1CCN(CCCCCNC(=O)C2CC2c2ccc(Cl)c(Cl)c2)CC1 (stereo not drawn)	96
COc1ccc2nccc([C@@H](O)CN3CCC(NC(=O)c4cccc(C(=O)c5ccccc5)c4)CC3)c2c1	13
CN(C)Cc1ccc(-c2ccc3c(Nc4ccc(Cl)cc4F)ccnc3c2)o1	13
CCCC(C)NC(=O)[C@H]1CNCCN1C(=O)CCCc1ccccc1.O=C(O)C(F)(F)F (stereo partly drawn)	47
